- target: Glucocorticoid receptor (Homo sapiens) (UniProt P04150)
- Sequence (P04150 whole entry, looked up): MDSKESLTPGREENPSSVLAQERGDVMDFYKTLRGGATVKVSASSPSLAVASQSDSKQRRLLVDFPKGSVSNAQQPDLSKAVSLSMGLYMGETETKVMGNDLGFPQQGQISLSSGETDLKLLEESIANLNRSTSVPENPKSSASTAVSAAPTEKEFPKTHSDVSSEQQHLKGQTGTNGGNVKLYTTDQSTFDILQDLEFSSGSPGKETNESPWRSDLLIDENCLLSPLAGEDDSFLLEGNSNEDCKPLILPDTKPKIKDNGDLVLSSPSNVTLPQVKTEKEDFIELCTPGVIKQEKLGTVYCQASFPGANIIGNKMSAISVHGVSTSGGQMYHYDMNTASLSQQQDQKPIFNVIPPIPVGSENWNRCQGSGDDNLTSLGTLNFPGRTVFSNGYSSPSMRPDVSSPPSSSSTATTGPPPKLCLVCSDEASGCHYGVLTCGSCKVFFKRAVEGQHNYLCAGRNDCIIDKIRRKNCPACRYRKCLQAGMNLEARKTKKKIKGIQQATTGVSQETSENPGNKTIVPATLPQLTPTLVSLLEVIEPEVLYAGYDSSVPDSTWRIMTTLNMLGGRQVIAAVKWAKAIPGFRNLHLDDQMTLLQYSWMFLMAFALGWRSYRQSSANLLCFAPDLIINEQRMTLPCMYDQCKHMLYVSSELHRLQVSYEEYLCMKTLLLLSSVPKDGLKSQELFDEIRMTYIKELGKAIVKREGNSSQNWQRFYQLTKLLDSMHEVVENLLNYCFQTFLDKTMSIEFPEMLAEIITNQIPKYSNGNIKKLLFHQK
- assay summary: GR-GFP Redistribution (AID 450)
- assay setup: U2OS GR-GFP nuclear translocation, laser cytometry, 2 h
Calls of active or inactive are those of the source.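 How the source made its calls: active means compounds whose dose series gives a full or clear partial fitted curve of increased nuclear translocation; inconclusive means weak partial curve or effect only at the top dose; inactive means no dose-dependent translocation response.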
// classify into label 1 (active), label 0 (inactive)

Worked set:
(Q) Hi, sorry to bother you, what did the test record for CO[C@H]1[C@H](O[C@H]2O[C@@H](C)[C@@H](O[C@@H]3C[C@](C)(O)[C@H](O)[C@H](C)O3)[C@@H](N(C)C)[C@@H]2O)[C@@H](CC=O)C[C@@H](C)[C@@H](O[C@H]2CC[C@H](N(C)C)[C@H](C)O2)/C=C\C=C/C[C@@H](C)OC(=O)C[C@H]1O ?
(A) label 0

(Q) Outcome logged for COc1ccc(C[C@@](C)(N)C(=O)O)cc1OC in this assay:
(A) label 0

(Q) Dear colleague, could you share the recorded outcome for CC(C)(N=NC(C)(C)C(=N)N)C(=N)N when you have a moment?
(A) label 0

(Q) Dear colleague, could you share the recorded outcome for CC=C(/C(=C/C)c1ccc(O)cc1)c1ccc(O)cc1 when you have a moment?
(A) label 0

(Q) Hello, I am checking results. What call was entered for C[C@H]1[C@@H](O)[C@@H](C)\C=C/C=C\C=C/C=C\C=C/C=C\C=C/[C@@H](O[C@H]2O[C@@H](C)[C@@H](O)[C@@H](N)[C@@H]2O)C[C@@H]2O[C@](O)(C[C@@H](O)C[C@@H](O)[C@@H](O)CC[C@@H](O)C[C@@H](O)CC(=O)O[C@H]1C)C[C@@H](O)[C@H]2C(=O)O (stereo in doubt) ?
(A) label 0

(Q) What did the test return for COc1ccc2c(c1)N(C[C@@H](C)CN(C)C)c1ccccc1S2 ?
(A) label 0

(Q) State the result this test recorded for C[C@@H]1CCc2cc(F)cc3c(=O)c(C(=O)O)cn1c23 .
(A) label 0

(Q) # fetch the recorded call for C#C[C@]1(O)CC[C@@H]2[C@H]3CCC4=Cc5oncc5C[C@]4(C)[C@@H]3CC[C@@]21C here
(A) label 0

Next:
(Q) Which outcome was entered for the compound C=Cc1c(C)c2cc3nc(cc4[nH]c(cc5nc(cc1[nH]2)C(C)=C5CCC(=O)O)c(CCC(=O)OC)c4C)[C@@]1(C)C3=CC=C(C(=O)OC)[C@H]1C(=O)OC (tested in a mixture with another compound) in this test?
(A) label 0

(Q) For CC(=O)OCC(=O)[C@@]1(OC(C)=O)[C@H](C)C[C@H]2[C@@H]3C[C@H](F)C4=CC(=O)C=C[C@@]4(C)[C@]3(F)[C@H](O)C[C@@]21C , what call appears in the results of this test?
(A) label 1

(Q) Hi, do you know how CCOC(=O)O[C@]1(C(=O)COC(=O)CC)CC[C@@H]2[C@@H]3CCC4=CC(=O)C=C[C@@]4(C)[C@H]3[C@H](O)C[C@]21C came out in this test?
(A) label 1

(Q) How was CS(=O)(=O)c1ccc([C@H](O)[C@H](CO)NC(=O)C(Cl)Cl)cc1 classified in this test?
(A) label 0

(Q) Answer briefly: the call reported for CC(=O)Nc1cc2ccccc2oc1=O in this assay.
(A) label 0

(Q) Which outcome was entered for the compound CN[C@H]1[C@H](O)[C@@H](O[C@@H]2[C@H](O)[C@@H](O[C@H]3OC(CN)=CC[C@H]3N)[C@@H](N)C[C@H]2N)OC[C@@]1(C)O in this test?
(A) label 0
